tested on: HOP-92 NSCLC; assay: NCI-60 one-dose screen, 48 h (100 = growth as untreated, 0 = no growth, -100 = all killed); conditions: 10 µM unless noted
Compounds without any hit were thinned out: in the full panel of roughly 83,000, 20% have a hit. Activity calls are given as the source filed them. How the source made its calls: active means growth percent below 10; inactive means the rest.
Can you tell me growth for the items I'm about to list?

# input Endpoint output: growth of CC[C@]1(O)C[C@H]2CN(CCc3c([nH]c4ccccc34)[C@@](C(=O)OC)(c3cc4c(cc3OC)N(C=O)[C@H]3[C@@](O)(C(=O)OC)[C@H](OC(C)=O)[C@]5(CC)C=CCN6CC[C@]43[C@@H]65)C2)C1 . Value?
# output 72.3% (inactive)

# input Query: growth; subject: O=c1ccn(C2OC(F)(CO)C(O)C2F)c(=O)[nH]1 (configuration not stated)
# output 98.1% (inactive)

# input Using the record for CCn1c(Sc2nnc(Nc3ccccc3)s2)nc2c1c(=O)n(C)c(=O)n2C , report its growth.
# output 61.5% (inactive)

# input Data request, read-out growth, for COc1ccc(/C(C)=C(\c2ccc(Cl)cc2)c2ccc(OCCN3CCCCCC3)cc2)cc1F
# output 73.3% (inactive)

# input What does the data say about its growth? Entry: CC(=O)Nc1ccc(C(=O)/C=C/c2ccccc2)cc1
# output 47.8% (inactive)

# input Looking for the measured growth of Nc1c(-c2nc3ccc(Br)cc3c(=O)[nH]2)nnn1-c1ccccc1 , can you help?
# output 94.7% (inactive)

# input Would you mind telling me what growth value was observed for N#Cc1c(NC(=O)c2cccc(C(F)(F)F)c2)sc2c1CCC(=O)C2 ?
# output -28.5% (active)

# input Requested field: growth. Item: COc1cc2c(c(OC)c1OC)C(=O)/C(=C/c1cc(C)c(O)c(C)c1)S2
# output 54.6% (inactive)

# input What value of measured growth is listed for CS(=O)(=O)c1ccc(N/N=C/c2c(-c3ccc(S(C)(=O)=O)cc3)[nH]c3ccc(F)cc23)cc1 ?
# output 16.3% (inactive)

# input Entry under review: Cc1nc(Nc2ccccn2)sc1C(=O)/C=C/c1ccc(Br)cc1 . Reported growth?
# output 96.3% (inactive)

# input molecule: CCCCCCNc1cc(C)nc2ccc(OC)cc12 ; wanted: its growth
# output 39.3% (inactive)

# input For the molecule shown here, O=C1Nc2ccccc2/C1=N/N=C/c1ccc(OC2OC(CO)C(O)C(O)C2O)cc1 (configuration not stated) , give the reported growth.
# output 111% (inactive)

# input # query: growth of entry Cc1cc2c(F)c(Oc3ncnc(Nc4ccc(N5C[C@@H](C)N[C@@H](C)C5)cc4)c3C#N)cc(F)c2[nH]1
# output 89.1% (inactive)

# input Requested read-out: growth. Entry: O=c1[nH]nc(-c2ccc(Cl)cc2)cc1Cc1ccccc1
# output 86.2% (inactive)

# input Using the record for Cc1[nH]c(-c2nc3ccccc3[nH]2)c(C)c1C(=O)N1CCOCC1 , report its growth.
# output 91.1% (inactive)

# input Reported growth for CC(C)(C)N1CC(OC(N)=O)C1 : what is it?
# output 96.2% (inactive)

# input Name the recorded growth for O=C(CC12CC3CC(CC(C3)C1)C2)NCCOCCOCCOCCNC(=O)c1cc2c(o1)C(=O)c1ccccc1C2=O .
# output 27.6% (inactive)
